The reported measurements were obtained from patent US20250101028A1.

experimental-system: GST-tagged GDP-loaded KRAS G12V (amino acids 1-169) (Homo sapiens, UniProt P01116, G12V)
Construct: GST-tagged GDP-loaded KRAS G12V (amino acids 1-169)
Sequence (P01116 1-169 isoform P01116-2 G12V): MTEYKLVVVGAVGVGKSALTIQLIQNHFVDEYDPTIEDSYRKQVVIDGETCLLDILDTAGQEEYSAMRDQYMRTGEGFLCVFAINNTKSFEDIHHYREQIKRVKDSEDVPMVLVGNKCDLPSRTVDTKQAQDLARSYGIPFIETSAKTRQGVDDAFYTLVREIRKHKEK
test-name: KRAS G12V probe displacement assay (TR-FRET)
particulars: displacement of biotinylated probe 2 from GDP-loaded KRAS G12V
Protocol: KRAS WT and KRAS G12V Probe Displacement Assay This assay was used to identify compounds which bind to GDP-loaded KRAS protein and are able to displace a biotinylated probe occupying the KRAS binding site. […] The TR-FRET signals (ex337 nm, em665 nm/620 nm) were read on BMG PHERAstar FSX instrument. The inhibition percentage of KRAS protein binding with biotinylated probe in presence of increasing concentrations of compounds was calculated based on the ratio of fluorescence at 665 nm to that at 620 nm. […]
Consider the cut-off 0.03 µM. If the recorded IC50 is strictly smaller, the label is criterion met; if not, the label is criterion not met.

{"columns": ["compound", "assigned-class"],
 "data": [
  ["CC1(C)CCN1c1nc(OC[C@@]23CCCN2C[C@H](F)C3)nc2c(F)c(-c3ccc(F)c4sc(N)nc34)c(C(F)(F)F)cc12", "criterion met"],
  ["N#CCC1CCN(c2nc(OC[C@@]34CCCN3C[C@H](F)C4)nc3c(F)c(-c4cc(N)cc(Cl)c4C(F)(F)F)ncc23)CC1", "criterion not met"],
  ["Nc1nc2c(-c3c(C(F)(F)F)cc4c(N5CCC(O)CC5)nc(OC[C@@]56CCCN5C[C@H](F)C6)nc4c3F)ccc(F)c2s1", "criterion met"],
  ["N#C[C@@H]1CCCN(c2nc(OC[C@@]34CCCN3C[C@H](F)C4)nc3c(F)c(-c4ccc(F)c5sc(N)nc45)c(C(F)(F)F)cc23)C1", "criterion met"],
  ["Nc1nc2c(-c3c(C(F)(F)F)cc4c(N[C@H]5C[C@@H](CO)C5)nc(OC[C@@]56CCCN5C[C@H](F)C6)nc4c3F)ccc(F)c2s1", "criterion met"],
  ["CC[C@H]1CCCN1c1nc(OC[C@@]23CCCN2C[C@H](F)C3)nc2c(F)c(-c3ccc(F)c4sc(N)nc34)c(C(F)(F)F)cc12", "criterion met"],
  ["COC1CC1Nc1nc(OC[C@@]23CCCN2C[C@H](F)C3)nc2c(F)c(-c3ccc(F)c4sc(N)nc34)c(C(F)(F)F)cc12 (stereo partly shown)", "criterion not met"]
]}
